targetOrTestSystem: PKC isoenzyme δ (Homo sapiens, UniProt Q05655)
Construct: made in house; host or cells: baculovirus-insect cell expression system
Sequence (Q05655 whole entry): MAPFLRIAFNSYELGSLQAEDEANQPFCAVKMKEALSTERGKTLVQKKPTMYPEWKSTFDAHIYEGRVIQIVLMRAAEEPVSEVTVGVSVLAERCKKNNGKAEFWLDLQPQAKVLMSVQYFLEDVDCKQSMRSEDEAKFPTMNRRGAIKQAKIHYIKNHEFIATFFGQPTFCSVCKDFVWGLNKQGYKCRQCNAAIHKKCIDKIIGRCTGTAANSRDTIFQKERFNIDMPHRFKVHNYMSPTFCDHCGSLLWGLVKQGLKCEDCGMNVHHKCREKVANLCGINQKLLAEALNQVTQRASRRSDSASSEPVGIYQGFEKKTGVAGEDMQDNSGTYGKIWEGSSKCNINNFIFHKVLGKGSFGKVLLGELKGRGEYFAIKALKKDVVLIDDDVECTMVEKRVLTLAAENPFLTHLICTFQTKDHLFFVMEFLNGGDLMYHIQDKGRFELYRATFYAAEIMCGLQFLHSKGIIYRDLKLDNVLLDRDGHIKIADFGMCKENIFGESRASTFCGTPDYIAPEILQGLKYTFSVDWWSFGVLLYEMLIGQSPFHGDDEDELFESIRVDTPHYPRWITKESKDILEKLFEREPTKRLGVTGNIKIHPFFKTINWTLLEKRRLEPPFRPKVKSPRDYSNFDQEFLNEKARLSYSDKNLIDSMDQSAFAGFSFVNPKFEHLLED
methodDescription: Protein kinase C inhibition assay, PKC isoenzyme δ
Type: biochemical
testSettings: read-out: IC50 PKC δ
propertyMeasured: pIC50
Formally, pIC50 is defined as -log10 of the concentration c, with c in mol/L.

Study these solved cases before continuing.
>  <compound>
O=C1C(Nc2ccc(S(=O)(=O)Nc3cnc4ccccc4n3)cc2)=CC(=Nc2ccc(S(=O)(=O)Nc3cnc4ccccc4n3)cc2)c2ccccc21 [Compound 6m]

>  <pIC50>
4.43

$$$$
>  <compound>
Cc1cc(C)nc(NS(=O)(=O)c2ccc(N=C3C=C(Nc4ccc(S(=O)(=O)Nc5nc(C)cc(C)n5)cc4)C(=O)c4ccccc43)cc2)n1 [Compound 6c]

>  <pIC50>
5.00

$$$$
>  <compound>
Cc1ccnc(NS(=O)(=O)c2ccc(N=C3C=C(Nc4ccc(S(=O)(=O)Nc5nccc(C)n5)cc4)C(=O)c4ccccc43)cc2)n1 [Compound 6f]

>  <pIC50>
4.37

$$$$

Quick one: give measured pIC50 for Cc1noc(NS(=O)(=O)c2ccc(N=C3C=C(Nc4ccc(S(=O)(=O)Nc5onc(C)c5C)cc4)C(=O)c4ccccc43)cc2)c1C [Compound 6b]
4.41
